meta.source: patent US6683060B2

SUBJECT OF TEST: MMP-2 (Homo sapiens)
Construct: The purified enzyme was already an active form with a molecular weight of about 64K; endogenous in cells; purified on gelatin-Sepharose 4B)
Sequence (P08253 110-660): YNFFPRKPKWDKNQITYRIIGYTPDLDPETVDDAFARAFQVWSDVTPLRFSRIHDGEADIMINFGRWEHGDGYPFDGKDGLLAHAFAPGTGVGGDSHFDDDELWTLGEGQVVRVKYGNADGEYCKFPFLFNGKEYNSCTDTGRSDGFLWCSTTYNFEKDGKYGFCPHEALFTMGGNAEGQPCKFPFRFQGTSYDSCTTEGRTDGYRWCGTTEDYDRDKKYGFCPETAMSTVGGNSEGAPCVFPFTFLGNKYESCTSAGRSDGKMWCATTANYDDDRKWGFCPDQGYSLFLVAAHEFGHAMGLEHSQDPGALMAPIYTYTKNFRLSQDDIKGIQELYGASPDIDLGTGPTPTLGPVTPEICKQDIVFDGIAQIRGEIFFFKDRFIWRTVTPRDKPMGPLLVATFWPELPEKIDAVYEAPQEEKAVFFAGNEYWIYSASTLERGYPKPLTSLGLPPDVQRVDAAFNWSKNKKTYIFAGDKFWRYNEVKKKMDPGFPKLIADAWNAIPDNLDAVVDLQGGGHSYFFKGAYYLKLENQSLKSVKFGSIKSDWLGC
PROTOCOL DETAILS: Inhibition of MMP-2 gelatinase activity on microtiter plates (biotinylated gelatin hydrolysis)
ASSAY CONTEXT: purified MMP-2 from ES-2 conditioned medium, biotinylated gelatin substrate; read-out: 50% inhibitory dose (IC50) on MMP-2 activity
REPORTED PROPERTY: IC50
Respond with a number, then the unit of measure.

Q: Value lookup for IC50; key = O=c1ccn(C2OC(CCO)C(O)C2O)c(=O)[nH]1 (stereo not shown)
Result: 150 µM
